Experiment: Solubility in gastric juice or intestinal juice model fluid (precipitation method using DMSO)
Assay type: physicochemical
Conditions: pH 6.8, kinetic from dmso stock, 2nd fluid for Disintegration Test of Japanese Pharmacopoeia (pH: 6.8), room temperature, read-out: Solubility (μg/mL) 2nd fluid
result.type: solubility at 24 h (µg/mL)

Consider the reported solubility at 24 h for these compounds:
1) COc1cc(-c2c[nH]c(-c3ccc(C)nc3)n2)ccc1OCc1ccc(C(F)(F)F)cn1 [Example 85] : 1
2) COc1cc(OCn2cccn2)ccc1-c1c[nH]c(-c2ccc(F)nc2)n1 [Example 120] : 4
3) COc1cc(OCc2ccc(C(F)(F)F)cn2)ccc1-c1c[nH]c(C2CCC(F)(F)CC2)n1 [Example 61] : 1.6
4) COc1cc(-c2[nH]c(C3CCC(F)(F)CC3)nc2Cl)ccc1OCc1ncc(C(F)(F)F)cc1F [Example 326] : 0.7
5) COc1cc(OCc2cccc(C#N)n2)ccc1-c1c[nH]c(C2CCCCC2)n1 [Example 55] : 2.3

[P] COc1cc(OCc2ncc(C(F)(F)F)cc2F)ccc1-c1cnc(C2CC2)[nH]1 [Example 375]
[Q] COc1cc(OCc2cncc(C(F)(F)F)c2)ccc1-c1cnc(-c2ccc(F)nc2)[nH]1 [Example 137]
[R] COc1cc(OCc2ccc(C(F)(F)F)cn2)ccc1-c1c[nH]c(-c2ccc(F)cn2)n1 [Example 41]
Ask: Rank ascending by solubility at 24 h. List labels; respect the requested ordering.
Reply: R, Q, P
(R: 1.3 µg/mL, Q: 36.1 µg/mL, P: 72.5 µg/mL)

[I] COc1cc(OCc2ccc(C(F)(F)F)cn2)ccc1-c1nc(-c2ccc(Cl)nc2)n(CC2CC2)c1C [Example 156]
[II] COc1cc(OCc2ncc(C(F)(F)F)cc2F)ccc1-c1cnc(-c2ccc(Br)nc2)[nH]1 [Example 387]
[III] COc1c(OCc2ccc(C(F)(F)F)nc2)ccc(-c2[nH]c(C3CCC(F)(F)CC3)nc2Cl)c1OC [Example 200]
Ask: Rank ascending by solubility at 24 h. List labels; respect the requested ordering.
Reply: II, III, I

[1] COc1cc(OCc2ncc(Cl)cc2C(F)(F)F)ccc1-c1[nH]c(-c2ccc(F)nc2)nc1Br [Example 274]
[2] COc1cc(-c2c[nH]c(C3CCC(C)CC3)n2)ccc1OCc1ccc(C(F)(F)F)cn1 (centres unmarked) [Example 64]
[3] COc1cc(OCc2ccc(C(F)(F)F)cn2)ccc1-c1c[nH]c(-c2ccc(Cl)nc2)n1 [Example 94]
[4] COc1cc(OC(C)c2ncc(Br)cc2F)ccc1-c1cnc(-c2ccc(F)nc2)[nH]1 (centres unmarked) [Example 128]
Ask: # sort list by recorded solubility at 24 h, greatest to least List labels; respect the requested ordering.
Reply: 4, 2, 3, 1

[P] COCn1cc(-c2ccc(OCc3ccc(C(F)(F)F)cn3)cc2OC)nc1-c1ccc(Cl)nc1 [Example 167]
[Q] COc1cc(OCc2ccc(C(F)(F)F)cn2)ccc1-c1c[nH]c(C2CCCCCC2)n1 [Example 75]
[R] COc1cc(OCc2ncc(C(F)(F)F)cc2F)ccc1-c1[nH]c(-c2ccc(F)nc2)nc1C(F)(F)F [Example 411]
[S] COc1cc(OCc2ccc(C(F)(F)F)cn2)ccc1-c1[nH]c(C2CC(F)(F)C2)nc1Cl [Example 188]
Ask: # sort list by recorded solubility at 24 h, greatest to least List labels; respect the requested ordering.
Reply: R, S, Q, P

[P] COc1cc(OCc2ncc(C(F)(F)F)cc2F)ccc1-c1cnc(C(C)(C)C)[nH]1 [Example 379]
[Q] COc1cc(OCc2ccc(C(F)(F)F)nc2)ccc1-c1nc(-c2ccc(Cl)cn2)[nH]c1Cl [Example 228]
Ask: In terms of reported solubility at 24 h, does P or Q have the smaller number? Please reply using the label of the selected record.
Reply: Q
(Q: 2.6 µg/mL, P: 72.9 µg/mL)
